- System: KSHV-infected DMVEC
- METHOD: Morpholino treatment and focus inhibition assay (Example 5)
- Type: cell-based, human
- PARTICULARS: PMO-treated KSHV-infected DMVEC vs control PMO; repeated three times
- Source text: Morpholino Treatment and Focus Inhibition Assay. Phosphorodiamidate morpholino antisense oligonucleotides (PMO-AS) were designed and synthesized by Gene Tools LLC (Philomath, Oreg.) as a Special Delivery formulation, which pairs the morpholino with a partially complementary DNA oligo. […] Cells were monitored daily under the phase microscope to evaluate PMO-AS-inhibition of the development of these foci. […]
MEASURED_PARAMETER: Foci/spindle morpholigical inhibition

SUBSTANCE: MFAP3: PMO antisense to MFAP3, TGAATAAGCAACAATGTAGCTTCAT (SEQ ID NO:24) (all phosphorodiamidate morpholino (PMO); delivered paired with partially complementary DNA oligo (Special Delivery, EPEI))
OBSERVED_RESULT: None
--
SUBSTANCE: IGFBP2: PMO antisense to IGFBP2, GGCAGCCCACTCTCTCGGCAGCATG (SEQ ID NO:16) (all phosphorodiamidate morpholino (PMO); delivered paired with partially complementary DNA oligo (Special Delivery))
OBSERVED_RESULT: Full
--
SUBSTANCE: Neuritin: PMO antisense to Neuritin, TTAACTCCCATCCTACGTTTAGTCA (SEQ ID NO:19) (all phosphorodiamidate morpholino (PMO); delivered paired with partially complementary DNA oligo (Special Delivery))
OBSERVED_RESULT: Full
